// data source = ChEMBL document CHEMBL4342456

target: C-X-C chemokine receptor type 4 (Homo sapiens); experiment: Antagonist activity at human Gi/o-coupled CXCR4 expressed in mouse C2C12 cells assessed as inhibition in CXCL12-induced beta-arrestin 2 recruitment at 20 uM incubated for 30 mins followed by CXCL12 addition and measured after 90 or 180 mins by pathhunter beta-arrestin assay relative to control; assay type: cell-based
Catalogue of inhibition values
Enter your answer as a number in %; do not include the unit.

Would you please look over these solved cases?
1) CC[C@@]1(CC(=O)OC)CCCN2CC[C@]3(O)C(=Nc4ccccc43)[C@@H]21
-9
2) COC(=O)[C@@H]1[C@H]2C[C@H]3c4[nH]c5ccccc5c4CCN3C[C@@H]2CC[C@@H]1O
21
3) CC[C@@]1(CC(=O)NC2CCCC2)CCCN2CCc3c([nH]c4ccccc34)[C@@H]21
4
4) CC[C@]12CCCN3CC[C@]4(C(=O)c5ccccc5N4C(=O)C1)[C@@H]32
-10
5) CC[C@]12CCCN3CCc4c(n(c5ccccc45)[C@@](O)(C(=O)OC)C1)[C@@H]32
10
6) CC[C@@]12CCCN3CCc4c([nH]c5ccccc45)[C@]31N(Cc1cn(Cc3ccccc3)nn1)C(=O)C2
34

Now consider a different compound.
Look up and report measured inhibition for this entry: CC[C@@]12C=C(C(=O)OC)n3c(c(c4ccccc43)CCN(/C=C/C(=O)OC)CCC1)[C@@H]2c1ccc(O)cc1
40
